Origin of measurements: patent US20250223358A1

target-or-test-system: T1, human CD3 (human, UniProt P07766 23-207; P04234 22-171; P09693 23-182)
T1 construct: whole, on cells; also called hCD3; CD3 on Jurkat cells
T1 sequence (P07766 23-207, chain 1 of 3): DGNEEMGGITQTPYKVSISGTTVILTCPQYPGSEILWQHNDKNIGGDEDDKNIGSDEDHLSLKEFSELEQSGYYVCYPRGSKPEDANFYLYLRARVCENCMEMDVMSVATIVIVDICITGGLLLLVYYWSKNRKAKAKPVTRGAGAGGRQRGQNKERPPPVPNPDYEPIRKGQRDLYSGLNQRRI
T1 sequence (P04234 22-171, chain 2 of 3): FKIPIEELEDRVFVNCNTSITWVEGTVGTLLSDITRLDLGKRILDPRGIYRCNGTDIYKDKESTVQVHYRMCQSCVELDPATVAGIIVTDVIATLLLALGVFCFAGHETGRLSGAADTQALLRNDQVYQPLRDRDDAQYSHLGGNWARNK
T1 sequence (P09693 23-182, chain 3 of 3): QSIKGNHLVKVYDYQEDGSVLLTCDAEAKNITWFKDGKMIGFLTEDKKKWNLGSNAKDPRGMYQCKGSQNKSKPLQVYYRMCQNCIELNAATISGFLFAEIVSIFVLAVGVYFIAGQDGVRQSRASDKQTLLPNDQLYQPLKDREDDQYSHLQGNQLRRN
assay-method-text: FACS on Jurkat cells
readout-name: EC50 (nM)
The response must be a number in nM with no trailing unit.

hu40E9-L2H14 (antibody, V domains shown) VH: EVQLVQSGAEVKKPGSSVKVSCKASGYTFSSYVIHWVRQAPGQGLEWMGYINPYNDVIKYNEKFKGRVTLTSDKSTSTAYMELSSLRSEDTAVYYCARESYYSYDGFAYWGQGTLVTVSS VL: EIVLTQSPDFQSVTPKEKVTITCSASSSVSYMHWYQQKPDQSPKRLIYDTSKLASGVPSRFSGSGSGTDFTLTINSLEAEDAATYYCQQWSSNPPTFGGGTKVEIK :: 0.43

Problem: Identify EC50 associated with the binder hu40E9-L2H16 (antibody, V domains shown) VH: EVQLVQSGAEVKKPGSSVKVSCKASGYTFSDYVIHWVRQAPGQGLEWMGYINPYNDVIKYNEKFKGRVTLTSDKSTSTAYMELSSLRSEDTAVYYCARDSYYSYDGFAYWGQGTLVTVSS VL: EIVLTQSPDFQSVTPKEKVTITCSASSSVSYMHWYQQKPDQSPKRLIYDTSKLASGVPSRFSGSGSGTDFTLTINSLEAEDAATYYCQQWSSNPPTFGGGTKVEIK
Solution: 1.27
